- ASSAY_TARGET: CDK9/CyclinT1 (Homo sapiens (Human), UniProt P50750)
- Sequence (P50750 whole entry, species assumed): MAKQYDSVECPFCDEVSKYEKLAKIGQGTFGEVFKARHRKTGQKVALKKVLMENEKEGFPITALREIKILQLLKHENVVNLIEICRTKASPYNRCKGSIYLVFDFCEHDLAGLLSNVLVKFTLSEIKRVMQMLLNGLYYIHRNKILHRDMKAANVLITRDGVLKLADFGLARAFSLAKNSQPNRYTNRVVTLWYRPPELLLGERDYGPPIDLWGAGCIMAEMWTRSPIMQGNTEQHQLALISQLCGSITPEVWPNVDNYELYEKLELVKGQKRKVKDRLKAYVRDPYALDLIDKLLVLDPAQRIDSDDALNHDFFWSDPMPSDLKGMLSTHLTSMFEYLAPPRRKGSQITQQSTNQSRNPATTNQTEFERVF
- Sequence (O60563 whole entry partner, species assumed): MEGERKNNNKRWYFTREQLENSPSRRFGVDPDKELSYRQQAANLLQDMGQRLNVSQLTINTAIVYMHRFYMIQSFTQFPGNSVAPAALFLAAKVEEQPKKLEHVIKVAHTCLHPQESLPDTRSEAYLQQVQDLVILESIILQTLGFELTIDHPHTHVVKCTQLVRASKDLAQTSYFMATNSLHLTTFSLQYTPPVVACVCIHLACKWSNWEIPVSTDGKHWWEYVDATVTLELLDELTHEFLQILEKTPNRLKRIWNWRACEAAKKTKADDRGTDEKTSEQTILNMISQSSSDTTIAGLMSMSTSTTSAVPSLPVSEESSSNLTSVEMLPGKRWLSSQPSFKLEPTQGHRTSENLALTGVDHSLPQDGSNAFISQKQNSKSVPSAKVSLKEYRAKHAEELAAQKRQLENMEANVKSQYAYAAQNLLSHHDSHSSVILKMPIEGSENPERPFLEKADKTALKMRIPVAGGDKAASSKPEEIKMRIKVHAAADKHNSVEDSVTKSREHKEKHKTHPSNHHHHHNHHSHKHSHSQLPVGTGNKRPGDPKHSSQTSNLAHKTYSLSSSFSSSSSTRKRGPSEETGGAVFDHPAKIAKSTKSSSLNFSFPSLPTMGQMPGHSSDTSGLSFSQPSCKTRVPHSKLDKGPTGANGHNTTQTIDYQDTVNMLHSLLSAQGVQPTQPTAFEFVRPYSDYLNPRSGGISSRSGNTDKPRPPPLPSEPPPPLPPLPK
- RUN_DESCRIPTION: In vitro enzymatic inhibitory activity test, CDK9
- CONDITIONS: Caliper mobility shift, 180 min at 27° C.
MEASURED_METRIC: IC50 (µM)

Study these solved cases before continuing.
[
  {
    "COMPOUND": "CC1(C#N)CN(c2ccc3c(-c4nc(N[C@H]5CCCNC5)ncc4C(F)(F)F)c[nH]c3n2)C1 [Compound 21]",
    "IC50 (µM)": 2.98
  },
  {
    "COMPOUND": "C[C@@H]1OCC2(CCN(c3ccc4c(-c5nc(N[C@H]6CCCNC6)ncc5C(F)(F)F)c[nH]c4n3)CC2)[C@@H]1N [Compound 12]",
    "IC50 (µM)": 2.79
  },
  {
    "COMPOUND": "FC(F)(F)c1cnc(N[C@H]2CCCNC2)nc1-c1c[nH]c2nc(N3CCC4(CC3)COC4)ccc12 [Compound 15]",
    "IC50 (µM)": 3.32
  },
  {
    "COMPOUND": "FC(F)(F)c1cnc(N[C@H]2CCCNC2)nc1-c1c[nH]c2nc(C3=CCCCO3)ccc12 [Compound 109]",
    "IC50 (µM)": 2.87
  }
]

a: FC(F)(F)c1cnc(N[C@H]2CCCNC2)nc1-c1c[nH]c2nc(C3CCOC3)ccc12 (some centres unmarked) [Compound 29]
b: FC(F)(F)c1cnc(N[C@H]2CCCNC2)nc1-c1c[nH]c2nc(N3CCOC[C@@H]3C(F)(F)F)ccc12 [Compound 33]
Prompt line: Returns: the argument ( a or b ) having the larger IC50. Answer format: the label of the selected item.
Response line: b

Hello, the source for this data is patent US20240132489A1, in case you need it.
